test: Compound cytotoxicity assay (CellTiter-Glo); format: cell-based; settings: human; HepG2.2.15 cells, 4 day incubation, top conc. 150 μM
property.measured: IC50 at 4 days (µM)
Numbers only, in µM.

// query # input compound: COCCCOc1cc2c(cc1Cl)-c1cc(=O)c(C(=O)O)cn1[C@H](C(C)(C)C)C2 [Compound 203 in WO2015113990, reference compound] ; wanted: its IC50 at 4 days
// result 120

---

experiment: Rat PK study; format: in vivo, female Sprague-Dawley rats; details: female, Sprague-Dawley, plasma, 20 mg/kg, oral dosing
property.measured: Cmax (ng/mL)
Give bare numbers, in ng/mL.

1) COCCCOc1cc2c(cc1Cl)-c1cc(=O)c(C(=O)O)cn1[C@H](C(C)(C)C)C2 [Compound 203 in WO2015113990, reference compound] : 2470

Consider the record given below.
// query # input compound: COCCCOc1cc2c(cc1Cl)-c1c(F)c(=O)c(C(=O)O)cn1[C@H](C(C)(C)C)C2 (single isomer, unassigned) ; wanted: its Cmax
// result 7550
